targetOfAssay: Gal(b1-3)GlcNAc(b1-2)Man(a1-3)[Gal(b1-3)GlcNAc(b1-2)Man(a1-6)]Man(b1-4)GlcNAc(b1-4)GlcNAc
assayComment: glycan array binding signal (z-score within array); higher = stronger binding
testConditions: glycan notation: IUPAC condensed, linker removed
About 410 targets per protein were measured; listed, in parts, are those with the strongest signals and a random draw of the rest.
experimentalReadout: glycan array binding signal (z-score)

# binder, experimentalReadout, measuredValue
rows = [
    ("Surfactant Protein D (Human); Neck + Carbohydrate Recognition Domain (NCRD) (Homo sapiens) (protein) MLLFLLSALVLLTQPLGYLEAEMKTYSHRTMPSACTLVMCSSVESGLPGRDRDGREGPRGEKGDPGLPGAAGQAGMPGQAGPVGPKGDNGSVGEPGPKGDTGPSGPPGPPGVPGPAGREGALGKQGNIGPQGKPGPKGEAGPKGEVGAPGMQGSAGARGLAGPKGERGVPGERGVPGNTGAAGSAGAMGPQGSPGARGPPGLKGDKGIPGDKGAKGESGLPDVASLRQQVEALQGQVQHLQAAFSQYKKVELFPNGQSVGEKIFKTAQFVKPFTEAQLLCTQAGGQLASPRSAAENAALQQLVVAKNEAAFLSMTDSKTEGKFTYPTGESLVYSNWAPGEPNDDGGSEDCVEIFTNGKWNDRACGEKRLVVCEF", "glycan array binding signal (z-score)", -0.275),
    ("SalT (Orysata sativa) (protein) MTLVKIGLWGGNGGSAQDISVPPKKLLGVTIYSSDAIRSIAFNYIGVDGQEYAIGPWGGGEGTSTEIKLGSSEHIKEISGTHGPVYDLADIVTYLKIVTSANNTYEAGVPNGKEFSIPLQDSGHVVGFFGRSGTLIDAIGIYVHPILEQKLISEEDLNSAVDHHHHHH", "glycan array binding signal (z-score)", 3.69),
    ("Gal 4 (Mus musculus), P56470 (protein) MAYVPAPGYQPTYNPTLPYYQPIPGGLNVGMSVYIQGVASEHMKRFFVNFVVGQDPGSDVAFHFNPRFDGWDKVVFNTLQGGKWGSEERKRSMPFKKGAAFELVFIVLAEHYKVVVNGNPFYEYGHRLPLQMVTHLQVDGDLQLQSINFIGGQPLRPQGPPMMPPYPGPGHCHQQLNSLPTMEGPPTFNPPVPYFGRLQGGLTARRTIIIKGYVPPTGKSFAINFKVGSSGDIALHINPRMGNGTVVRNSLLNGSWGSEEKKITHNPFGPGQFFDLSIRCGLDRFKVYANGQHLFDFAHRLSAFQRVDTLEIQGDVTLSYVQI", "glycan array binding signal (z-score)", -0.181),
    ("UDA (Urtica dioica), P11218 (protein) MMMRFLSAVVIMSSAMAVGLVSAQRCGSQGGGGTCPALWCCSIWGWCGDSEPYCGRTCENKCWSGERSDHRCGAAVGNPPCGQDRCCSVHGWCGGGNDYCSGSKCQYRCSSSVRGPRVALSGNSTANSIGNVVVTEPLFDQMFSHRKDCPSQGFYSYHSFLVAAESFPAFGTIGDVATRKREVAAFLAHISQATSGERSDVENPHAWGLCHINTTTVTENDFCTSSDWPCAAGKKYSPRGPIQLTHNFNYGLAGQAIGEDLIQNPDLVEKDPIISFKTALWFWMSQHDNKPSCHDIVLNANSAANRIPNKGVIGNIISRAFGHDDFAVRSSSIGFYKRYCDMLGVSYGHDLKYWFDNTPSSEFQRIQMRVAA", "glycan array binding signal (z-score)", 0.04),
    ("EEA (Euonymus europaeus) (protein) MASTIIATGPTYRVYCRAAPNYNMIVGKGVAFLAPIDETNELQYWYKDDTYSYIKDEAGLPAFSLVNKATGLTLKHSNHHPVPVKLVTYNPNVVDESVLWSQADDRGDGYSAIRSLTNPASHLEAAPLNDWSYNGAIIMGGVWIDAYNQQWKIEPHTG", "glycan array binding signal (z-score)", -0.157),
]
